Biological target: Thromboxane-A synthase (Rattus norvegicus, UniProt P49430)
Sequence (P49430 whole entry): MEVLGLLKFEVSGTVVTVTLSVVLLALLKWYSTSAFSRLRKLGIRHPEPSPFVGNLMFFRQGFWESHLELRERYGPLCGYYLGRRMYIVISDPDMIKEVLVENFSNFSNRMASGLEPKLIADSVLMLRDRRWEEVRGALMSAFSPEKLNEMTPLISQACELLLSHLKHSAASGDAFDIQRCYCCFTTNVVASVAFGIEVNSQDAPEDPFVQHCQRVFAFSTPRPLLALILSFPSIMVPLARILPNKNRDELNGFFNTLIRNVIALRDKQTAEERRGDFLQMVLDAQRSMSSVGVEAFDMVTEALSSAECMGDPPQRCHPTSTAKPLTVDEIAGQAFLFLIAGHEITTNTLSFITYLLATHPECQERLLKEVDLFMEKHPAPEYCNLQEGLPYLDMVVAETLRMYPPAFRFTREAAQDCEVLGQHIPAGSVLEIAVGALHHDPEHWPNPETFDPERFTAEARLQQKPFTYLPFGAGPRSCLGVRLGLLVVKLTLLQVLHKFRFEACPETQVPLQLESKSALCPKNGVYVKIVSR
pIC50: −log10 of the molar value.
Decision: pIC50 >= 7 yields satisfied, all other cases yield not satisfied.

Q: Could you please find out whether CC(CCn1c(=O)[nH]c2c(Cl)cccc2c1=O)n1ccnc1 (configuration not stated) has pIC50 that meets 7 or exceeds it?
Ans: not satisfied

Q: Is the recorded value of pIC50 equal to or greater than 7 for this compound? O=c1[nH]c2cc(Cl)ccc2c(=O)n1CCCCn1ccnc1
Ans: satisfied

Q: Does pIC50 meet or surpass 7 for CC(Cn1ccnc1)Cn1c(=O)[nH]c2ccc(Cl)cc2c1=O (configuration not stated) ?
Ans: satisfied

###

Target: Thromboxane-A synthase (Rattus norvegicus)
Sequence (P49430 whole entry): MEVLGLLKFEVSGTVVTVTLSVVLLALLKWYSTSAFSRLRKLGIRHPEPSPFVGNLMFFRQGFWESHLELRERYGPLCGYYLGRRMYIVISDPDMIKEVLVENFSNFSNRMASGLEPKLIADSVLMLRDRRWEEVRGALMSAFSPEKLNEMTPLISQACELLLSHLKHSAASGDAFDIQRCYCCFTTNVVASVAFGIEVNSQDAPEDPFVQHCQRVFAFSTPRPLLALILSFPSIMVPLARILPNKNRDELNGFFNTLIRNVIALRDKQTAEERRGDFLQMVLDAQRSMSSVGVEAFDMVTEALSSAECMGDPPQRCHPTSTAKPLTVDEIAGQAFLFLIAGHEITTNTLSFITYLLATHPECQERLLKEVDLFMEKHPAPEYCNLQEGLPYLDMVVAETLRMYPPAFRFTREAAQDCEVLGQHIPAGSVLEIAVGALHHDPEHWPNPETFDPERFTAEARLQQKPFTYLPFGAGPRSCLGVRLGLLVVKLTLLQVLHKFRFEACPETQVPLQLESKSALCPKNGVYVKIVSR
Would you kindly list IC50 for each of these compounds?
Give bare numbers, in nM.

# annotated cases, reported IC50 shown
Cc1ccc2[nH]c(=O)n(CC(C)Cn3ccnc3)c(=O)c2c1 (stereo not given) :: 3
CC(CCNC(=O)c1cc(Cl)ccc1N)n1ccnc1 (stereo not given) :: 500
Cc1ccc(N)c(C(=O)NCCC(C)n2ccnc2)c1 (stereo not given) :: 170

Parameter requested: IC50. Apply to each item below.
1. O=c1c2ccccc2nnn1CCCn1ccnc1
2. O=c1[nH]c2c(C(F)(F)F)cccc2c(=O)n1CCCCCn1ccnc1
3. O=c1c2cc(Cl)ccc2ncn1CCCCCCCCn1ccnc1
4. Cc1ccc2ncn(CCCCn3ccnc3)c(=O)c2c1

Ans:
1: 1500; 2: 10; 3: 40; 4: 350

Please give IC50 for each item listed below.
1. CC(CNC(=O)c1cc(Cl)ccc1N)Cn1ccnc1 (stereo not given)
2. O=c1[nH]c2ccc(Cl)cc2c(=O)n1CCCCCCn1ccnc1
3. O=c1c2ccccc2nnn1CCCCCCn1ccnc1

Ans:
1. 90
2. 4
3. 50
